The values you see were collected from paper PMC3734177.

Please respond with reported IC50 for every item in the list.
measurement-target: papain (Carica papaya, UniProt P00784)
Sequence (P00784 134-345): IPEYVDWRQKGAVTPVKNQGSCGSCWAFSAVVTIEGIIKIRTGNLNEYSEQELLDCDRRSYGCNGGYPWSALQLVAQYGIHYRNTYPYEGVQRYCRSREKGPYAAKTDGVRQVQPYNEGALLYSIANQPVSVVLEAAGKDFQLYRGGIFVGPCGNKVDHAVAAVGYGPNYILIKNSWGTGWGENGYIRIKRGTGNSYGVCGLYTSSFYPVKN
Give bare numbers, in µM.

- smiles-data: "Oc1ccccc1-c1nc(-c2ccccn2)c2ccccn12"
  measurement-target: "papain (Carica papaya, UniProt P00784)"
  measure: "IC50"
  result-number: 13.4

Would you be so kind as to report IC50 for each listed record?
1. Clc1ccccc1-c1nc(-c2ccccn2)c2ccccn12
2. CC(C)(C)c1cc(-c2nc(-c3ccccn3)c3ccccn23)cc(C(C)(C)C)c1O

1. 94.5
2. 96.5

So what does the record say about IC50 for COc1ccc(-c2nc(-c3ccccn3)c3ccccn23)cc1 ?
21.2

---

measurement-target: papain (Carica papaya, UniProt P00784)
Construct: To solutions of active papain (final concentration: 0.05 mM); purchased Sigma Chemical Co., St. Louis, MO, USA
Sequence (P00784 134-345): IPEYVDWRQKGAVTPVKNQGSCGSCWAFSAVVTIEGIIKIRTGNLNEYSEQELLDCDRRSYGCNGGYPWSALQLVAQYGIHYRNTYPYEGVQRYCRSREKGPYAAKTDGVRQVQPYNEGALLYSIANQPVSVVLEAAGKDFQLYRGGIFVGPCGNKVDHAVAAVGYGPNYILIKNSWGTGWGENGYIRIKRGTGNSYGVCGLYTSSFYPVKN
procedure-details: Cysteine protease inhibitory activity, papain with Bz-DL-Arg-pNA substrate
Assay type: biochemical
condition-summary: 42°C
measure: pKi
Give bare numbers, as −log10 of the molar value.

Below: 3 compounds and their reported pKi.
- smiles-data: "Clc1ccccc1-c1nc(-c2ccccn2)c2ccccn12"
  pKi: 4.07
- smiles-data: "COc1ccc(-c2nc(-c3ccccn3)c3ccccn23)cc1"
  pKi: 4.68
- smiles-data: "CC(C)(C)c1cc(-c2nc(-c3ccccn3)c3ccccn23)cc(C(C)(C)C)c1O"
  pKi: 4.05

Here is another compound to look at.
Give its pKi value. Item: Oc1ccccc1-c1nc(-c2ccccn2)c2ccccn12
4.95

---

measurement-target: papain (Carica papaya, UniProt P00784)
Construct: To solutions of active papain (final concentration: 0.05 mM); purchased Sigma Chemical Co., St. Louis, MO, USA
procedure-details: Cysteine protease inhibitory activity, papain with Bz-DL-Arg-pNA substrate
Format: biochemical
condition-summary: 37°C
measure: pKi
Answers are plain numbers, as −log10 of the molar value.

- smiles-data: "COc1ccc(-c2nc(-c3ccccn3)c3ccccn23)cc1"
  pKi: 4.63
- smiles-data: "Oc1ccccc1-c1nc(-c2ccccn2)c2ccccn12"
  pKi: 4.86

Give pKi for all compounds that follow.
1. CC(C)(C)c1cc(-c2nc(-c3ccccn3)c3ccccn23)cc(C(C)(C)C)c1O
2. Clc1ccccc1-c1nc(-c2ccccn2)c2ccccn12

1: 4.00; 2: 4.05

---

// MIC90 collected for Bacillus spp. (ATCC-14593)
One number for each entry, in µg/mL.

- compound: "CC(C)(C)c1cc(-c2nc(-c3ccccn3)c3ccccn23)cc(C(C)(C)C)c1O"
  value-units: "µg/mL"
  result-number: 2.6
- compound: "Clc1ccccc1-c1nc(-c2ccccn2)c2ccccn12"
  value-units: "µg/mL"
  result-number: 1.7
- compound: "CO/N=C(\\C(=O)N[C@@H]1C(=O)N2C(C(=O)O)=C(CSc3nc(=O)c(=O)[nH]n3C)CS[C@H]12)c1csc(N)n1 [Ceftriaxone, reference compound]"
  value-units: "µg/mL"
  result-number: 1.6
- compound: "Oc1ccccc1-c1nc(-c2ccccn2)c2ccccn12"
  value-units: "µg/mL"
  result-number: 1.2

As a next step, examine the compound that follows.
Quick one: MIC90 of COc1ccc(-c2nc(-c3ccccn3)c3ccccn23)cc1 ?
1.7
